molecular target: Recombinant MAPKAPK2 (Homo sapiens, UniProt P49137); experiment: Determination of MK-2 IC50 (HSP-peptide phosphorylation, anion exchange resin capture assay); format: biochemical; conditions: MK-2 Avg. IC50, Table I, aminocyanopyridine MK-2 inhibitors
Sequence (P49137 whole entry, species assumed): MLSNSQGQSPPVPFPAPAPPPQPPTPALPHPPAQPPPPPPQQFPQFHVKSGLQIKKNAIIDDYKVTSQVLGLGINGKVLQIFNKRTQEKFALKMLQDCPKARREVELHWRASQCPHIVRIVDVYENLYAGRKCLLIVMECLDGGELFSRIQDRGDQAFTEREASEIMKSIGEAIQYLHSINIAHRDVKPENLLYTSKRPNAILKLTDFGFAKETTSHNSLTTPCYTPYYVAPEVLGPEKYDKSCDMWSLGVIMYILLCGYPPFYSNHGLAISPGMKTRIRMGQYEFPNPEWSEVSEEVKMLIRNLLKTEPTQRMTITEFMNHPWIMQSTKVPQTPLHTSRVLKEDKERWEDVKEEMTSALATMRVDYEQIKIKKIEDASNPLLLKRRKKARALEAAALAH
measured attribute: IC50 (µM)
Answer in µM, number only, no unit symbol.

Return reported IC50 for target or system Recombinant MAPKAPK2 (Homo sapiens, UniProt P49137), item CC1Cc2c(nc(N)c(C#N)c2N)O1 (centres unmarked) .
44.1

// fetch IC50 for COc1ccc(Nc2c(C#N)c(N)nc3c2CC(C(F)(F)F)O3)cc1 (centres unmarked) ; system: Recombinant MAPKAPK2 (Homo sapiens, UniProt P49137)
36.4

Please look at N#Cc1c(-c2ccco2)cc(-c2ccc(B(O)O)cc2)nc1N and tell me its recorded IC50 on Recombinant MAPKAPK2 (Homo sapiens, UniProt P49137).
16.7

Answer briefly: IC50 recorded on Recombinant MAPKAPK2 (Homo sapiens, UniProt P49137) for N#Cc1c(N)nc2c(c1-c1cccc(F)c1)CCc1n[nH]cc1-2
8.5

Provide measured IC50 on Recombinant MAPKAPK2 (Homo sapiens, UniProt P49137) for N#Cc1c(N)nc2c(c1-c1ccncc1)CCc1n[nH]cc1-2 please.
94.3

Give IC50; test system Recombinant MAPKAPK2 (Homo sapiens, UniProt P49137); compound N#Cc1c(-c2ccccc2F)cc(-c2ccoc2)nc1N
17.9

Jot down IC50 (Recombinant MAPKAPK2 (Homo sapiens, UniProt P49137)) of CSc1cc(N)c(C#N)c(N)n1 .
41.6

Jot down IC50 (Recombinant MAPKAPK2 (Homo sapiens, UniProt P49137)) of COc1ccnc(N)c1C#N .
69.6

Report value: IC50, system: Recombinant MAPKAPK2 (Homo sapiens, UniProt P49137), compound: N#Cc1c(N)nc2ccccc2c1C(=O)O
161

Please indicate recorded IC50 of COc1ccc(-c2cc(-c3cccc(F)c3)c(C#N)c(N)n2)cc1 measured with Recombinant MAPKAPK2 (Homo sapiens, UniProt P49137).
97.3

With Recombinant MAPKAPK2 (Homo sapiens, UniProt P49137) as the test system, provide measured IC50 for this compound: CS(=O)(=O)Nc1ccc(-c2cc(-c3ccco3)c(C#N)c(N)n2)cc1
9.27
